# target_of_assay: B-RAF G466V (Homo sapiens, UniProt P15056, G466V)
# Construct: expressed in transfected cells; host or cells: T-Rex 293 cells (Invitrogen #R71007)
# Sequence (P15056 whole entry G466V): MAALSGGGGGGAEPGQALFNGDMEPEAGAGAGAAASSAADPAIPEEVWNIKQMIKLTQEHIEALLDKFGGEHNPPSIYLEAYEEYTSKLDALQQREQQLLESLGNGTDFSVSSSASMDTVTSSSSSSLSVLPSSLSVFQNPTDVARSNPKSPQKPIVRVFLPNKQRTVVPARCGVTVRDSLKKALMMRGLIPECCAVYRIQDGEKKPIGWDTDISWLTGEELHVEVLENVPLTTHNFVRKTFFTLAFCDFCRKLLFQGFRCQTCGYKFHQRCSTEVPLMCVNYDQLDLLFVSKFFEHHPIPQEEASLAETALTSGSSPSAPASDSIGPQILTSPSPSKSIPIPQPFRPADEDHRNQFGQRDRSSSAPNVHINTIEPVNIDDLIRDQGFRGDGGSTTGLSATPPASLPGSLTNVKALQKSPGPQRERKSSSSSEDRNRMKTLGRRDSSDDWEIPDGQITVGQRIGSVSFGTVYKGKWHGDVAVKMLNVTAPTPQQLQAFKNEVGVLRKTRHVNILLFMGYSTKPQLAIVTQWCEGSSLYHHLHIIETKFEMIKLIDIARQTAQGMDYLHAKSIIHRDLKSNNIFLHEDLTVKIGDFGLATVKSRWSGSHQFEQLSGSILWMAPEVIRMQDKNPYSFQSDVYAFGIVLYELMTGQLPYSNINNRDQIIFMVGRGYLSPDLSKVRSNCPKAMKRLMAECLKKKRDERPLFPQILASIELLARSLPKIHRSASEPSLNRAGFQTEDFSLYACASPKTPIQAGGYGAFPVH
# procedure_summary: Target protein degradation, assay D: T-Rex 293 cells, HA-BRAF_G466V, 384 well format
# Type: cell-based
# recorded_conditions: T-REx-293, Assay D, T-Rex 293 HA-BRAF_G466V cells, 24 hours, Examples 83-269
Each entry below lists one item and its recorded Dmax value.

>>> result("N#Cc1c(NS(=O)(=O)N2CC[C@@H](F)C2)ccc(F)c1Oc1ccc2ncn(-c3ccc(N4CCN(CC5CCN(c6ccc(N7CCC(=O)NC7=O)c(F)c6)CC5)CC4)nc3)c(=O)c2c1 [Example 142]")
"≤ 35%"
>>> result("N#Cc1c(NS(=O)(=O)N2CC[C@@H](F)C2)ccc(F)c1Oc1ccc2ncn(-c3cnc(N4CCCC4CC4CCN(c5ccc6c(c5)C(=O)N(C5CCC(=O)NC5=O)C6=O)CC4)nc3)c(=O)c2c1 (stereo partly drawn) [Example 130]")
"≤ 35%"

Field Dmax (entry N#Cc1c(NS(=O)(=O)N2CC[C@@H](F)C2)ccc(F)c1Oc1ccc2ncn(-c3ccc(N4CC5(CN(CC6CCN(c7ccc8c(c7)C(=O)N(C7CCC(=O)NC7=O)C8=O)CC6)C5)C4)nc3)c(=O)c2c1 (stereo partly drawn) [Example 172] ) reads ≤ 35%

###

# target_of_assay: B-RAF V600E (Homo sapiens, UniProt P15056, V600E)
# Construct: expressed in transfected cells; host or cells: T-Rex 293 cells (Invitrogen #R71007)
# Sequence (P15056 whole entry V600E): as the sequence (P15056 whole entry G466V) above, with V466G, V600E counted along it
# procedure_summary: Target protein degradation, assay A: T-Rex 293 cells, HA-B-RAF_V600E, 96 well format
# Format: cell-based
# recorded_conditions: T-Rex 293 HA-B-RAF_V600E cells, 24 hours, Examples 1-82
# Procedure: A. T-Rex 293 Cells (96 well format) T-Rex 293 cells were purchased from Invitrogen (#R71007), and stably transfected with a pcDNA4/TO_HA-B-RAF_V600E construct, using 400 ug Zeocin for selection. […] Plate was wash three times with 200 uL PBS++, and imaged on a high content reader (ImageXpress Micro XLS, Molecular Devices). […]
Each entry below lists one item and its recorded DC50 value.

Here are 9 compounds together with their reported answers.
>>> result("N#Cc1c(NS(=O)(=O)N2CC[C@@H](F)C2)ccc(F)c1Oc1ccc2ncn(-c3ccc(N4CCN(c5ccc6c(c5)CN(C5CCC(=O)NC5=O)C6=O)CC4)cc3)c(=O)c2c1 (stereo partly shown)")
"> 500 nM"
>>> result("N#Cc1c(NS(=O)(=O)N2CC[C@@H](F)C2)ccc(F)c1Oc1ccc2ncn(-c3ccc(N4CCN(CC5CCN(c6ccc7c(c6)CN(C6CCC(=O)NC6=O)C7=O)CC5)CC4)nc3)c(=O)c2c1 (stereo partly shown)")
"50 to 500 nM"
>>> result("N#Cc1c(NS(=O)(=O)N2CC[C@@H](F)C2)ccc(F)c1Oc1ccc2ncn(-c3ccc(N4CCN(CC5CCN(c6ccc(NC7CCC(=O)NC7=O)cc6F)CC5)CC4)cc3)c(=O)c2c1 (stereo partly shown)")
"5 to 50 nM"
>>> result("N#Cc1c(NS(=O)(=O)N2CC[C@@H](F)C2)ccc(F)c1Oc1ccc2ncn(-c3ccc(N4CCN(C(=O)CC5(O)CCN(c6ccc(C7CCC(=O)NC7=O)cc6F)CC5)CC4)cc3)c(=O)c2c1 (stereo partly shown)")
"50 to 500 nM"
>>> result("N#Cc1c(NS(=O)(=O)N2CC[C@@H](F)C2)ccc(F)c1Oc1ccc2ncn(-c3ccc(N4CCN(CC5CN(c6ccc7c(c6)CN([C@H]6CCC(=O)NC6=O)C7=O)C5)CC4)cc3)c(=O)c2c1")
"5 to 50 nM"
>>> result("N#Cc1c(NS(=O)(=O)N2CC[C@@H](F)C2)ccc(F)c1Oc1ccc2ncn(-c3ccc(N4CCN(CC5CN(c6ccc7c(c6)CN(C6CCC(=O)NC6=O)C7=O)C5)CC4)nc3)c(=O)c2c1 (stereo partly shown)")
"50 to 500 nM"
>>> result("N#Cc1c(NS(=O)(=O)N2CC[C@@H](F)C2)ccc(F)c1Oc1ccc2ncn(-c3ccc(N4CCN(CC5CCN(c6ccc7c(c6F)CN([C@H]6CCC(=O)NC6=O)C7=O)CC5)CC4)cc3)c(=O)c2c1")
"5 to 50 nM"
>>> result("N#Cc1c(NS(=O)(=O)N2CC[C@@H](F)C2)ccc(F)c1Oc1ccc2ncn(-c3ccc(N4CCN(c5ccc6c(c5)C(=O)N(C5CCC(=O)NC5=O)C6=O)CC4)cc3)c(=O)c2c1 (stereo partly shown)")
"> 500 nM"
>>> result("N#Cc1c(NS(=O)(=O)N2CC[C@@H](F)C2)ccc(F)c1Oc1ccc2ncn(-c3ccn(C4CCN(CC5CCN(c6ccc7c(c6)CN(C6CCC(=O)NC6=O)C7=O)CC5)CC4)n3)c(=O)c2c1 (stereo partly shown)")
"50 to 500 nM"

Field: next compound
Observed DC50, B-RAF V600E (Homo sapiens, UniProt P15056, V600E), N#Cc1c(NS(=O)(=O)N2CC[C@@H](F)C2)ccc(F)c1Oc1ccc2ncn(-c3cnc(N4CCN(c5ccc6c(c5)C(=O)N(C5CCC(=O)NC5=O)C6=O)CC4)nc3)c(=O)c2c1 (stereo partly shown) : > 500 nM

The measurements presented in this section are drawn from patent US11957759B1.
